Recorded values, source paper PMC5540273.

# System: CAMK2G
# experimentalParameters: concentration: 1 μM, replicates: in singlicate; n = 1;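 note: KINOMEscan kinase panel screen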
Field 'label' (enum: condition met / condition not met). Set to condition met when %Inh is strictly under 20%; else condition not met.

is_below(%Inh, 20%) for Cc1ccccc1-c1cc(-c2c[nH]nc2-c2ccccn2)ccn1 ?
condition met

is_below(%Inh, 20%) for Cc1ccccc1Cn1ccn2c(=O)cc(N3CCOCC3)nc12 ?
condition not met

is_below(%Inh, 20%) for NS(=O)(=O)c1cccc(N/C=C2\C(=O)Nc3ccc(S(=O)(=O)Cc4c(Cl)cccc4Cl)cc32)c1 ?
condition met

is_below(%Inh, 20%) for CC(C)c1cc(-c2ccc3c(N)n[nH]c3c2)nc(N)n1 ?
condition not met

is_below(%Inh, 20%) for Cc1c(Cn2c(C)c(C)n3c(=O)cc(N4CCOCC4)nc23)cccc1C(F)(F)F ?
condition met

---

# Test system: MEK5
# Construct: gene MAP2K5
# experimentalParameters: concentration: 1 μM, replicates: in singlicate; n = 1
measurementName: %Inh (%)
Form entry: value (%) — number only.

Which %Inh value belongs to COc1ccc(Nc2nccc(N3CCC(NC(=O)c4cc5ccccc5s4)C3)n2)cc1 (stereo not drawn) [GSK1379738] ?
10

Which %Inh value belongs to COc1nccc(-c2c(-c3ccc(F)cc3)ncn2CCCN2CCOCC2)n1 [SB-282852] ?
7

Which %Inh value belongs to Nc1nccc(-c2c(-c3ccc(F)cc3)ncn2C2CCN(Cc3ccccc3)CC2)n1 [SB-219980] ?
28

Which %Inh value belongs to COc1ccc(CSc2nnc(-c3ccc4c(c3)CCO4)o2)cc1 ?
1

Which %Inh value belongs to COc1ccc(-c2coc3ccc(-c4nnc(C)o4)cc23)cc1 ?
0

Which %Inh value belongs to Cc1c(Cn2c(C)c(C)n3c(=O)cc(N4CCOCC4)nc23)cccc1C(F)(F)F [GSK2328680] ?
0

Which %Inh value belongs to Nc1ncnc2occ(-c3ccc4c(c3)CCN4C(=O)Cc3cc(F)ccc3F)c12 [GSK2645446] ?
92.3

Which %Inh value belongs to COc1cccc(C2=C(Nc3cc(Cl)c(O)c(Cl)c3)C(=O)NC2=O)c1 [SB-390767] ?
17

Which %Inh value belongs to CC(C)c1cc(-c2ccc3c(N)n[nH]c3c2)nc(N)n1 [GSK2250882] ?
29

---

# Tested on: PIK3CD
# experimentalParameters: concentration: 1 μM, replicates: in singlicate; n = 1
Consider the following compounds; for each one, report its %Inh.

Which %Inh value belongs to COc1ccc(Nc2nccc(-c3ccc(NC(=O)c4cc5cc(F)ccc5[nH]4)cc3)n2)cc1 [GSK1229496] ?
0%

Which %Inh value belongs to COC(=O)c1cccc(NC(=O)NC2CCN(c3ccnc(Nc4ccc(OC)cc4)n3)C2)c1 (stereo not shown) [GSK1379746] ?
30%

Which %Inh value belongs to CNc1cc(-c2ccc3c(N)n[nH]c3c2)nc(N)n1 [GSK2224810] ?
1%

Which %Inh value belongs to Cc1ccccc1-c1cc(-c2c[nH]nc2-c2ccccn2)ccn1 [GW680061] ?
4%

---

Consider the following molecules; for each one, report its %Inh.
# Tested on: ACVR1
# experimentalParameters: concentration: 1 μM, replicates: in singlicate; n = 1
Form entry: value (%) — number only.

Which %Inh value belongs to Nc1cccc(-c2ccc3c(N)n[nH]c3c2)n1 ?
0

Which %Inh value belongs to Cc1ccc(NC(=O)Nc2ccc(Cl)cc2)cc1-c1ccc(C(=O)Nc2ccncc2)cc1 ?
15

Which %Inh value belongs to Cc1c(Cn2c(C)c(C)n3c(=O)cc(N4CCOCC4)nc23)cccc1C(F)(F)F ?
0

Which %Inh value belongs to COc1ccc(CSc2nnc(-c3ccc4c(c3)CCO4)o2)cc1 ?
0

Which %Inh value belongs to O=c1cc(N2CCOCC2)nc2n(Cc3ccccc3F)ccn12 ?
0

Which %Inh value belongs to Cn1cnc2c(N)ncnc21 ?
0

Which %Inh value belongs to Nc1ncnc2occ(-c3ccc4c(c3)CCN4C(=O)Cc3cc(F)ccc3F)c12 ?
0

Which %Inh value belongs to CNc1cc(-c2ccc3c(N)n[nH]c3c2)nc(N)n1 ?
29

Which %Inh value belongs to COc1cccc(NC(=O)Nc2ccc(C)c(-c3ccc(C(=O)Nc4ccncc4)cc3)c2)c1 ?
0

Which %Inh value belongs to O=c1cc(N2CCOCC2)nc2n(Cc3cccc(Cl)c3Cl)c3ccccc3n12 ?
0
